Listed compounds paired with reported EC50
Target: GST tagged LXRbeta LBD (ligand binding domain) (Homo sapiens)
Sequence (P55055 222-460 limits assumed): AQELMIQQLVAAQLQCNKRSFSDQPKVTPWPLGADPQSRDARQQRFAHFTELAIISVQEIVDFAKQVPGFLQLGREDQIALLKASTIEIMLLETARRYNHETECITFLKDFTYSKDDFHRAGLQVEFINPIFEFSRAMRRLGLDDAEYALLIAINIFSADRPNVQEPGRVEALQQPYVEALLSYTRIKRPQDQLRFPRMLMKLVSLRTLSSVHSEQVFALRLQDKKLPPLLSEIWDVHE
Assay: LanthaScreen TR-FRET Liver X Receptor Coactivator Assay, LXR beta-LBD
Details: Inflection Point (potency), co-activator recruitment, relative to reference T0901317; read-out: LXR beta IP
property: EC50 (µM)

compound=COC(=O)c1ccc(N2CCC(C3CCN(C(=O)OC(C)(C)C)CC3)CC2)nc1Cl measuredvalue=0.237
compound=COC1CN(C(=O)c2ccc(N3CCC(C4CCN(C(=O)[C@](O)(c5ccccc5)C(F)(F)F)CC4)CC3)cc2Cl)C1 measuredvalue=0.364
compound="CN(C(=O)c1ccc(N2CCC(C3CCN(C(=O)[C@](O)(c4ccccc4)C(F)(F)F)CC3)CC2)cc1Cl)C1CCOC1 (some centres unmarked)" measuredvalue=0.219
compound=CC(C)(C)OC(=O)NC1CN(C(=O)c2ccc(N3CCC(C4CCN(C(=O)[C@](O)(c5ccccc5)C(F)(F)F)CC4)CC3)cc2Cl)C1 measuredvalue=0.021
compound="COc1cccc(C(O)(C(=O)N2CCC(C3CCN(c4ccc(C(=O)N(C)C)c(Cl)c4)CC3)CC2)C(F)(F)C(F)(F)F)c1 (centres unmarked) [Example A-85]" measuredvalue=0.18
compound="CC(C)C(O)(C(=O)N1CCC(C2CCN(c3ccc(C(=O)N(C)C)c(Cl)n3)CC2)CC1)C(F)(F)F (centres unmarked) [Example B-4]" measuredvalue=0.026
compound=CN(C)C(=O)c1ccc(N2CCC(C3CCN(C(=O)c4c(F)cccc4Cl)CC3)CC2)cc1Cl measuredvalue=0.089
compound=CN(C)C(=O)c1ccc(N2CCC(C3CCN(C(=O)C4(c5ccc(Cl)cc5Cl)CCC4)CC3)CC2)cc1Cl measuredvalue=0.052
compound=CC(C)C(O)(C(=O)N1CCC(C2CCN(c3ccc(C(=O)N(C)C)c(Cl)n3)CC2)CC1)C(C)C measuredvalue=0.057
compound="CC(C)N(C(=O)c1ccc(N2CCC(C3CCN(C(=O)C(O)(C(C)C)C(F)(F)F)CC3)CC2)cc1Cl)C(C)C (centres unmarked)" measuredvalue=0.156
compound=CN(CCO)C(=O)c1ccc(N2CCC(C3CCN(C(=O)[C@](O)(c4ccccc4)C(F)(F)F)CC3)CC2)cc1Cl measuredvalue=0.057
compound=CN(C)C(=O)c1ccc(N2CCC(C3CCN(C(=O)C45CC(C4)C5)CC3)CC2)cc1Cl measuredvalue=0.314
compound=CN(C)C(=O)c1ccc(N2CCC(C3CCN(C(=O)C4(c5ccccc5)CCCC4)CC3)CC2)cc1Cl measuredvalue=0.037
compound=O=C(c1ccc(N2CCC(C3CCN(C(=O)[C@](O)(c4ccccc4)C(F)(F)F)CC3)CC2)cc1Cl)N1CC(N2CCCC2)C1 measuredvalue=0.098
